experiment: Pharmacokinetics study in CD-1 mice (IV, PO); format: in vivo; details: CD-1, mouse, plasma, iv, 1 mg/kg, IV 1 mg/kg, CD-1 mice, Mean; read-out: Cmax
endpoint-label: Cmax (ng/mL)
Write down the numeric answer in ng/mL and omit the unit.

Using the record for `Cc1ccc(F)cc1C[C@H](C)Nc1cc[nH]c(=O)c1-c1nc2cc3c(cc2[nH]1)C(=O)N(CCN1CCCC1)C3` , report its Cmax.
186

----------
assay: Pharmacokinetics study in CD-1 mice (IV, PO); format: in vivo; details: CD-1, mouse, plasma, iv, 1 mg/kg, IV 1 mg/kg, CD-1 mice, Mean
endpoint-label: AUC(0-inf) (ng·h/mL)
Write down the numeric answer in ng·h/mL and omit the unit.

Using the record for `Cc1ccc(F)cc1C[C@H](C)Nc1cc[nH]c(=O)c1-c1nc2cc3c(cc2[nH]1)C(=O)N(CCN1CCCC1)C3` , report its AUC(0-inf).
105

----------
test: Pharmacokinetics study in CD-1 mice (IV, PO); type: in vivo; conditions: CD-1, mouse, plasma, po, 5 mg/kg, PO 5 mg/kg, time point 0.083, individual animals A-D
endpoint-label: concentration at […] (ng/mL)
Write down the numeric answer in ng/mL and omit the unit.

Using the record for Cc1ccc(F)cc1C[C@H](C)Nc1cc[nH]c(=O)c1-c1nc2cc3c(cc2[nH]1)C(=O)N(CCN1CCCC1)C3 [compound (II)] , report its concentration at […].
2.07

----------
target: IGF1R (Homo sapiens); construct: 6×His- or GST-tagged kinase domain fragments of the corresponding RTKs expressed in baculovirus system; host or cells: baculovirus system; assay: IGF1R kinase assay; format: biochemical; conditions: Table 1; read-out: IGF1R IC50
Sequence (P08069 999-1274 limits assumed): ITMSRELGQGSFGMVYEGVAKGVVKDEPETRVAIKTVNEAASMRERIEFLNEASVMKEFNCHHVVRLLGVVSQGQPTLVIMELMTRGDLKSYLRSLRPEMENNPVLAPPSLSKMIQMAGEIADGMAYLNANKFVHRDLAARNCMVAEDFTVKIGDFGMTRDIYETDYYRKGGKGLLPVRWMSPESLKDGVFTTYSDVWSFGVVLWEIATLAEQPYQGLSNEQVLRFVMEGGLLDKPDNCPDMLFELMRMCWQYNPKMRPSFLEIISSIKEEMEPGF
endpoint-label: IC50

Recorded results for 3 compounds are shown here.
compound	IC50
Cc1c(C[C@H](C)Nc2cc[nH]c(=O)c2-c2nc3cc4c(cc3[nH]2)CN(CCN2CCCC2)C4=O)ccc(F)c1F	> 1000 nM
Cc1ccc(Cl)cc1C[C@H](C)Nc1cc[nH]c(=O)c1-c1nc2cc3c(cc2[nH]1)CN(CCN1CCCC1)C3=O	> 1000 nM
Cc1noc(C)c1CC(C)Nc1cc[nH]c(=O)c1-c1nc2cc3c(cc2[nH]1)C(=O)N(CCCN1CCCC1)C3=O (stereo not drawn)	> 1000 nM

Using the record for `Cc1ccc(C(F)(F)F)cc1C[C@H](C)Nc1cc[nH]c(=O)c1-c1nc2cc3c(cc2[nH]1)CN(CCN1CCCC1)C3=O` , report its IC50.
> 1000 nM

Repeat with `C[C@H](Cc1cccs1)Nc1cc[nH]c(=O)c1-c1nc2cc3c(cc2[nH]1)C(=O)N(CCCN1CCCC1)C3=O`
> 1000 nM

Repeat with `C[C@@H](Cc1cc(F)cc(F)c1F)Nc1cc[nH]c(=O)c1-c1nc2cc3c(cc2[nH]1)CN(CCN1CCCC1)C3`
250 to 1000 nM

Repeat with `Cc1ccc(F)cc1C[C@H](C)Nc1cc[nH]c(=O)c1-c1nc2cc3c(cc2[nH]1)CNC3=O`
250 to 1000 nM

Repeat with `C[C@H](Nc1cc[nH]c(=O)c1-c1nc2cc3c(cc2[nH]1)C(=O)N(CCCN1CCCC1)C3)[C@H](O)c1ccccc1`
250 to 1000 nM

Repeat with `COc1ccc(F)cc1C[C@H](C)Nc1cc[nH]c(=O)c1-c1nc2cc3c(cc2[nH]1)CN(CCN1CCOCC1)C3=O`
100 to 250 nM

----------
target: TRKA (Homo sapiens); assay: TRKA kinase assay; format: biochemical; set-up: 6×His- or GST-tagged kinase domain fragments of the corresponding RTKs expressed in baculovirus system; host or cells: baculovirus system; details: Table 3A; read-out: Cell Free IC50 TRKA
Sequence (P04629 510-781 limits assumed): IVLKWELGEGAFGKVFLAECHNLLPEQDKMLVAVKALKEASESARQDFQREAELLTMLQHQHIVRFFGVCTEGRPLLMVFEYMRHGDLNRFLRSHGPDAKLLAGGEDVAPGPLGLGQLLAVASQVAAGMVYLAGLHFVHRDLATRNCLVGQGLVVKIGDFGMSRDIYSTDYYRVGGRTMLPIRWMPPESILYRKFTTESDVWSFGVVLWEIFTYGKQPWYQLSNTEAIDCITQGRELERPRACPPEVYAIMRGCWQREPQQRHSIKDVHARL
Listed below: pIC50 values for each entry.
pIC50 is a log-scale quantity: -log10 of the concentration expressed in molar.

Recorded results for 2 compounds are shown here.
compound	quantitative-result
Cc1ccc(F)cc1C[C@H](C)Nc1cc[nH]c(=O)c1-c1nc2cc3c(cc2[nH]1)CN(CCN(C)C)C3=O [drawing 361]	8.52
Cc1ccc(F)cc1C[C@H](C)Nc1cc[nH]c(=O)c1-c1nc2cc3c(cc2[nH]1)C(=O)N(CCN1CCCC1)C3 [drawing 360]	8.70

Using the record for `C[C@@H](Cc1c(F)c(F)cc(F)c1F)Nc1cc[nH]c(=O)c1-c1nc2cc3c(cc2[nH]1)C(=O)N(C1CCN(C)CC1)C3` , report its pIC50.
8.30

----------
Test: Pharmacokinetics study in CD-1 mice (IV, PO)
Assay type: in vivo
Conditions: CD-1, mouse, plasma, iv, 1 mg/kg, IV 1 mg/kg, CD-1 mice, Mean
Experimental: A comprehensive PK study was run in CD-1 strain of mice with IV (1 mg/kg) and PO (5 mg/kg) routes of drug delivery and analytical data collection at 10 time points over 24 hours (Medicilon, Study CRL0703). Blood samples were collected by removing the eyeballs at pre-dose and 0.083, 0.25, 0.5, 1, 2, 4, 6, 8, and 24 hours post-dose. The plasma samples and the dose formulation were stored at −20° C. until bioanalysis.
endpoint-label: Tmax (min)
Write down the numeric answer in min and omit the unit.

Using the record for `Cc1ccc(F)cc1C[C@H](C)Nc1cc[nH]c(=O)c1-c1nc2cc3c(cc2[nH]1)C(=O)N(CCN1CCCC1)C3` , report its Tmax.
4.8

----------
Listed below: pIC50 values for each entry.
molecular target: ALK (Homo sapiens, UniProt Q9UM73); assay: ALK kinase assay (Kinase-Glo / AlphaScreen, purified NPM-ALK); type: biochemical; design: fused to the complete intracytoplasmic portion of ALK containing the functional tyrosine kinase domain; 6xHis; made in house; host or cells: insect cells; the other entry of the earlier key: NPM1 (P06748, Nucleophosmin); conditions: Table 1; read-out: ALK IC50;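 further: recombinant baculovirus-expressed ALK kinase domain, activity read either as leftover ATP by Kinase-Glo luminescence or as poly(Glu-Tyr) phosphorylation by anti-phosphotyrosine AlphaScreen proximity signal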
Sequence (Q9UM73 with tags, fused parts or gaps): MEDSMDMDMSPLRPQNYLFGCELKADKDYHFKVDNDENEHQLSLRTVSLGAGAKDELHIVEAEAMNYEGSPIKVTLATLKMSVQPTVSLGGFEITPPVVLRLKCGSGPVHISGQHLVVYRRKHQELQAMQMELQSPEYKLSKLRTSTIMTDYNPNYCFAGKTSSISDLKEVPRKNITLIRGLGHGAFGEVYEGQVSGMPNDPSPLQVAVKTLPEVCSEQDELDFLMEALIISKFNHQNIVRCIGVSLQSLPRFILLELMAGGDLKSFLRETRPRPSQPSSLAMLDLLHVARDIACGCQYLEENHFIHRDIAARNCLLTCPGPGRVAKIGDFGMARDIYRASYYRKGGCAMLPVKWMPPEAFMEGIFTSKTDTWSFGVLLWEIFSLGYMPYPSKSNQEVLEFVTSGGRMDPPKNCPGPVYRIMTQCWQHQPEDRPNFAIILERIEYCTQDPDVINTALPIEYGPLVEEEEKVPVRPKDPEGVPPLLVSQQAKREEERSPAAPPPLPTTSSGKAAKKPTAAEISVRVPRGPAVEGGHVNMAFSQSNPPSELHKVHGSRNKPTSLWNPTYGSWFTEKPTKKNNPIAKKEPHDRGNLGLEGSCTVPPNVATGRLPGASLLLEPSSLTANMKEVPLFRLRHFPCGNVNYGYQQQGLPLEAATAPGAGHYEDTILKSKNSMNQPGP
pIC50: −log10 of the molar value.

Recorded results for 6 compounds are shown here.
compound	pIC50
C[C@@H](Cc1cc(F)cc(F)c1F)Nc1cc[nH]c(=O)c1-c1nc2cc3c(cc2[nH]1)CN(CCN1CCOCC1)C3=O	7.00 to 8.00
COc1cc(F)c(F)c(C[C@H](C)Nc2cc[nH]c(=O)c2-c2nc3cc4c(cc3[nH]2)CN(CCN2CCCC2)C4=O)c1OC	7.00 to 8.00
CCC(Cc1cccs1)Nc1cc[nH]c(=O)c1-c1nc2cc3c(cc2[nH]1)C(=O)N(CCCN1CCCC1)C3 (stereo not drawn)	< 6.00
CC(Cc1ccsc1)Nc1cc[nH]c(=O)c1-c1nc2cc3c(cc2[nH]1)C(=O)N(CCCN1CCCC1)C3 (stereo not drawn)	6.00 to 6.60
C[C@H](CN(C)C)N1Cc2cc3nc(-c4c(N[C@@H](C)Cc5sccc5Cl)cc[nH]c4=O)[nH]c3cc2C1=O	7.00 to 8.00
CC(Cc1cc2ccccc2s1)Nc1cc[nH]c(=O)c1-c1nc2cc3c(cc2[nH]1)C(=O)N(CCCN1CCCC1)C3 (stereo not drawn)	< 6.00

# next compound below
Using the record for `Cc1ccccc1C[C@H](C)Nc1cc[nH]c(=O)c1-c1nc2cc3c(cc2[nH]1)CN(CCN1CCCC1)C3=O` , report its pIC50.
7.00 to 8.00

----------
target: CYP2D6 (Homo sapiens, UniProt P10635); construct: purchased Cerep (contract assay, ADMET Study 13170); experiment: CYP2D6 Inhibition (recombinant, MFC substrate); assay type: in vitro ADME; details: human, recombinant CYP2D6, probe MFC, 5.0E−06 M; Table 5B individual results; read-out: CYP2D6 % Inhibition of Control Values, 1st/2nd/3rd
Sequence (P10635 whole entry): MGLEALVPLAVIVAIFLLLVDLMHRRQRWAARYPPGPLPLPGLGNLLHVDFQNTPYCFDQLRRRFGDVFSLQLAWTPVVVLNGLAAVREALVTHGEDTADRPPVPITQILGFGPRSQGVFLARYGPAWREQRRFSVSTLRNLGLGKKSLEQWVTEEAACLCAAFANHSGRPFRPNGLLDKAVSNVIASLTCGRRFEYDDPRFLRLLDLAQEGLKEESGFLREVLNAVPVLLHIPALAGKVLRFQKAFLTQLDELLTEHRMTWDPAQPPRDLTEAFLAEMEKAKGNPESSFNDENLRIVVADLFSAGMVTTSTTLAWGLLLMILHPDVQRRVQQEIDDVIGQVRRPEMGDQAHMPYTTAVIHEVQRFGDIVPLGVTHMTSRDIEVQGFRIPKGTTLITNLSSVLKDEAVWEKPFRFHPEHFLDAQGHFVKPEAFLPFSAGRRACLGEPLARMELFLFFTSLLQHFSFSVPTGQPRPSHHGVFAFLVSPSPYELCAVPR
endpoint-label: activity at 5 µM (%)
Write down the numeric answer in % and omit the unit.

Using the record for `Cc1ccc(F)cc1C[C@H](C)Nc1cc[nH]c(=O)c1-c1nc2cc3c(cc2[nH]1)C(=O)N(CCN1CCCC1)C3` , report its activity at 5 µM.
84.9

----------
target: CYP2C9 (Homo sapiens, UniProt P11712); construct: purchased Cerep (contract assay, ADMET Study 13170); assay: CYP2C9 Inhibition (recombinant, MFC substrate); assay type: in vitro ADME; details: human, recombinant CYP2C9, probe MFC; 1.0E−06 M; read-out: CYP2C9 % Inhibition of Control Values
Sequence (P11712 whole entry): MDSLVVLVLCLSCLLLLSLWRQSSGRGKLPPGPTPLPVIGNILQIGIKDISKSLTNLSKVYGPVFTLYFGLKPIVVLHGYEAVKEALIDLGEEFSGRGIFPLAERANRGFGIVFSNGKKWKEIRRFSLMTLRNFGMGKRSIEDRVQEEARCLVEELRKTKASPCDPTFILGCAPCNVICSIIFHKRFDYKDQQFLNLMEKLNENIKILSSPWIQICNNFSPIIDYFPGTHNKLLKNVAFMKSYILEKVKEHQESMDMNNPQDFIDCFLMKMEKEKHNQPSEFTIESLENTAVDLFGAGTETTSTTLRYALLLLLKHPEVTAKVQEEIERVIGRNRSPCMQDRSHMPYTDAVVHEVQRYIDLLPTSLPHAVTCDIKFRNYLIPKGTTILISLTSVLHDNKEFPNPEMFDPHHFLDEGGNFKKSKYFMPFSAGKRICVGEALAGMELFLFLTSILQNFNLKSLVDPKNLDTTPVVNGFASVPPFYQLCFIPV
endpoint-label: inhibition at 1 µM (%)
Write down the numeric answer in % and omit the unit.

Using the record for `Cc1ccc(F)cc1C[C@H](C)Nc1cc[nH]c(=O)c1-c1nc2cc3c(cc2[nH]1)C(=O)N(CCN1CCCC1)C3` , report its inhibition at 1 µM.
20

----------
biological target: ALK (Homo sapiens, UniProt Q9UM73); assay: Invitrogen SelectScreen Z-lyte kinase assay, ALK; format: biochemical; set-up: purchased Invitrogen (SelectScreen service); details: 100 μM ATP
Sequence (Q9UM73 19-1620): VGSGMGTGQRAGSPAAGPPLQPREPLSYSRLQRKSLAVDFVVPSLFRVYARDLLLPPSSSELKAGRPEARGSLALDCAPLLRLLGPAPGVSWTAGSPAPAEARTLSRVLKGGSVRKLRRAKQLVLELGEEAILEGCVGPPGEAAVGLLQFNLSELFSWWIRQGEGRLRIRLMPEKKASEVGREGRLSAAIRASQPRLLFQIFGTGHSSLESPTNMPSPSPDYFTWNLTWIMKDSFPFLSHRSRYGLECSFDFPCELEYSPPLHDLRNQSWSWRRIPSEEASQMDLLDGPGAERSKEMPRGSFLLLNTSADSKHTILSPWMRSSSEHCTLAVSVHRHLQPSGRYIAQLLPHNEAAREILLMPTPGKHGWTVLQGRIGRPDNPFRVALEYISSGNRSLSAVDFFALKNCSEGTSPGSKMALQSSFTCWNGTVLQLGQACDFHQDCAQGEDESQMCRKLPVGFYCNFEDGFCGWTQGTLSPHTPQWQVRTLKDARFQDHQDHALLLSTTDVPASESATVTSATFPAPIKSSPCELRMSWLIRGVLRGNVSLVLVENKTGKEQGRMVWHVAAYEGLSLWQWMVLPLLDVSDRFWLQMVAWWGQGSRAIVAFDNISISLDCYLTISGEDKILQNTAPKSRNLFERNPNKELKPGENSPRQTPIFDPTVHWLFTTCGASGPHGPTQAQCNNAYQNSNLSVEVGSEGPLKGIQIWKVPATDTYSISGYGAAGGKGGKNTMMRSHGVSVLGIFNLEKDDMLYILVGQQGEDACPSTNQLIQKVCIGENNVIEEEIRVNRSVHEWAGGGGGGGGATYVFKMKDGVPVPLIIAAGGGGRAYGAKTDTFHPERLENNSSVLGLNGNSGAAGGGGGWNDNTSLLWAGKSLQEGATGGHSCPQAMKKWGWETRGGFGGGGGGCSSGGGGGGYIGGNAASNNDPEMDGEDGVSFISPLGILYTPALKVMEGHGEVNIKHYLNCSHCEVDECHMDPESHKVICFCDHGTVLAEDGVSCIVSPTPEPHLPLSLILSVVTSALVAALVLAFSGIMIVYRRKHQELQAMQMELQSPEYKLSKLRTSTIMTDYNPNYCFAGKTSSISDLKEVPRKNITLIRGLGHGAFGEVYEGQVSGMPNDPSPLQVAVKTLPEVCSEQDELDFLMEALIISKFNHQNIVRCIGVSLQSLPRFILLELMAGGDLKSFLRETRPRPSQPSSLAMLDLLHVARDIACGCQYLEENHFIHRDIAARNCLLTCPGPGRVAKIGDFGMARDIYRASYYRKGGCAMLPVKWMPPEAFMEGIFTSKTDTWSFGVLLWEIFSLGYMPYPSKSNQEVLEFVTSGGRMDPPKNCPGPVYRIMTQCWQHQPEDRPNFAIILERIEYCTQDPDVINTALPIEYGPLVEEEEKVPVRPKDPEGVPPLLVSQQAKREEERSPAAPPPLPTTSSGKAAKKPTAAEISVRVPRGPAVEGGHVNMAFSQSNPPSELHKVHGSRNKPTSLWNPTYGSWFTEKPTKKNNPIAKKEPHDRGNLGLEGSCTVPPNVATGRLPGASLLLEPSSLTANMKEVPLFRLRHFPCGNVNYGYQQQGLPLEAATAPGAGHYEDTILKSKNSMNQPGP
endpoint-label: pIC50
pIC50 is a log-scale quantity: -log10 of the concentration expressed in molar.

Using the record for `Cc1ccc(F)cc1C[C@H](C)Nc1cc[nH]c(=O)c1-c1nc2cc3c(cc2[nH]1)C(=O)N(CCN1CCCC1)C3` , report its pIC50.
8.01
